Listed here are compounds together with their documented efficacy (caterpillars killed).
- Tested on: Spodoptera frugiperda
- Assay protocol: Spodoptera frugiperda spray test
- Assay type: in vivo
- Test parameters: application rate 500 g/ha, after 7 days, maize leaf discs

[
  {
    "Compound": "N#Cc1ccc(CNC(=O)c2cc(-c3ccc(OC(F)(F)F)cc3)cc(NC(=O)C3(C(F)(F)F)CC3)n2)cc1",
    "Measurement units": "%",
    "efficacy (caterpillars killed)": 100
  },
  {
    "Compound": "N#CC1(NC(=O)c2cc(-c3ccc(OC(F)(F)F)cc3)cc(NC(=O)C3CC3)n2)CC1",
    "Measurement units": "%",
    "efficacy (caterpillars killed)": 100
  },
  {
    "Compound": "CC(C)C(=O)Nc1cc(-c2ccc(C(F)(F)F)cc2)cc(C(=O)NCc2ccc(Cl)nc2)n1",
    "Measurement units": "%",
    "efficacy (caterpillars killed)": 80
  },
  {
    "Compound": "N#Cc1ccc(CNC(=O)c2cc(-c3ccc([S+]([O-])C(F)F)cc3)cc(NC(=O)C3CC3)n2)cc1 (stereo not shown)",
    "Measurement units": "%",
    "efficacy (caterpillars killed)": 83
  },
  {
    "Compound": "O=C(NC1CC1)c1cc(-c2ccc(OC(F)(F)F)cc2)cc(NC(=O)C2CC2)n1",
    "Measurement units": "%",
    "efficacy (caterpillars killed)": 100
  },
  {
    "Compound": "CC(C)CNC(=O)c1cc(-c2ccc(C(F)(F)F)cc2)cc(NC(=O)C2CC2)n1",
    "Measurement units": "%",
    "efficacy (caterpillars killed)": 100
  },
  {
    "Compound": "O=C(NCC1CCCC1)c1cc(-c2ccc(OC(F)(F)F)cc2)cc(NC(=O)C2CC2)n1",
    "Measurement units": "%",
    "efficacy (caterpillars killed)": 100
  }
]

----------
Entries and their efficacy (beetle larvae killed)
- System: Phaedon cochleariae
- Assay protocol: Phaedon cochleariae spray test
- Type: in vivo
- Test parameters: application rate 500 g/ha, after 7 days, Chinese cabbage leaf discs

[
  {
    "Compound": "N#Cc1ccc(CNC(=O)c2cc(-c3ccc(Br)c(F)c3)cc(NC(=O)C3CC3)n2)cc1",
    "Measurement units": "%",
    "efficacy (beetle larvae killed)": 100
  },
  {
    "Compound": "N#Cc1ccc(CNC(=O)c2cc(-c3ccc(S(=O)(=O)C(F)(F)F)cc3)cc(NC(=O)C3CC3)n2)cc1F",
    "Measurement units": "%",
    "efficacy (beetle larvae killed)": 100
  },
  {
    "Compound": "O=C(Cc1ccc(Br)cc1)Nc1cc(-c2ccc(OC(F)(F)F)cc2)cc(C(=O)NC2CC2)n1",
    "Measurement units": "%",
    "efficacy (beetle larvae killed)": 100
  },
  {
    "Compound": "N#Cc1ccc(CNC(=O)c2cc(-c3ccc(OC(F)(F)F)cc3)cc(NC(=O)C3(Cl)CC3)n2)cc1",
    "Measurement units": "%",
    "efficacy (beetle larvae killed)": 100
  },
  {
    "Compound": "O=C(NCc1ccccn1)c1cc(-c2ccc(C(F)(F)F)cc2)cc(NC(=O)C2CC2)n1",
    "Measurement units": "%",
    "efficacy (beetle larvae killed)": 100
  },
  {
    "Compound": "C[C@H](NC(=O)c1cc(-c2ccc(C(F)(F)F)cc2)cc(NC(=O)C2CC2)n1)c1ccc(C(F)(F)F)cc1",
    "Measurement units": "%",
    "efficacy (beetle larvae killed)": 100
  },
  {
    "Compound": "N#Cc1ccc(NC(=N)c2cc(-c3ccc(OC(F)(F)F)cc3)cc(NC(=O)C3CC3)n2)cc1",
    "Measurement units": "%",
    "efficacy (beetle larvae killed)": 83
  },
  {
    "Compound": "CC(C)(CS(C)(=O)=O)NC(=O)c1cc(-c2ccc(C(F)(F)C(F)(F)F)c(F)c2)cc(NC(=O)C2CC2)n1",
    "Measurement units": "%",
    "efficacy (beetle larvae killed)": 100
  },
  {
    "Compound": "N#Cc1ccc(CNC(=O)c2cc(-c3ccc(C(F)(F)C(F)(F)F)cc3)cc(NC(=O)C3CC3)n2)cc1",
    "Measurement units": "%",
    "efficacy (beetle larvae killed)": 100
  },
  {
    "Compound": "N#Cc1ccc(CNC(=O)c2cc(-c3ccc(OC(F)(F)C(F)Cl)cc3)cc(NC(=O)C3CC3)n2)cc1 (centres unmarked)",
    "Measurement units": "%",
    "efficacy (beetle larvae killed)": 83
  },
  {
    "Compound": "N#Cc1ccc(NC(=O)c2cc(-c3ccc(C(F)(F)F)cc3)cc(NC(=O)C3CC3)n2)cc1",
    "Measurement units": "%",
    "efficacy (beetle larvae killed)": 100
  },
  {
    "Compound": "O=C(NCc1ccc(Cl)nc1)c1cc(-c2ccc(Cl)cc2)cc(NC(=O)C2CC2)n1",
    "Measurement units": "%",
    "efficacy (beetle larvae killed)": 100
  },
  {
    "Compound": "O=C(NC1COC1)c1cc(-c2ccc(OC(F)(F)F)cc2)cc(NC(=O)C2CC2)n1",
    "Measurement units": "%",
    "efficacy (beetle larvae killed)": 100
  },
  {
    "Compound": "N#Cc1ccc(CNC(=O)c2cc(-c3ccc(OC(F)(F)F)cc3)cc(NC(=O)C3CC3)n2)cc1F",
    "Measurement units": "%",
    "efficacy (beetle larvae killed)": 100
  },
  {
    "Compound": "N#Cc1cccc(CCNC(=O)c2cc(-c3ccc(OC(F)(F)F)cc3)cc(NC(=O)C3CC3)n2)c1",
    "Measurement units": "%",
    "efficacy (beetle larvae killed)": 100
  },
  {
    "Compound": "O=C(NC1(C2CC2)CC1)c1cc(-c2ccc(OC(F)(F)F)cc2)cc(NC(=O)C2CC2)n1",
    "Measurement units": "%",
    "efficacy (beetle larvae killed)": 100
  },
  {
    "Compound": "N#Cc1ccc(CNC(=O)c2cc(-c3ccc(C(F)(F)C(F)(F)F)c(F)c3)cc(NC(=O)C3CC3)n2)c(F)c1",
    "Measurement units": "%",
    "efficacy (beetle larvae killed)": 100
  },
  {
    "Compound": "COC(=O)c1ccc(CNC(=O)c2cc(-c3ccc(OC(F)(F)F)cc3)cc(NC(=O)C3CC3)n2)cc1",
    "Measurement units": "%",
    "efficacy (beetle larvae killed)": 83
  },
  {
    "Compound": "O=C(NOCC1CC1)c1cc(-c2ccc(OC(F)(F)F)cc2)cc(NC(=O)C2CC2)n1",
    "Measurement units": "%",
    "efficacy (beetle larvae killed)": 100
  },
  {
    "Compound": "N#CC1(NC(=O)c2cc(-c3ccc(C(F)(F)F)cc3)cc(NC(=O)C3CC3)n2)CC1",
    "Measurement units": "%",
    "efficacy (beetle larvae killed)": 100
  },
  {
    "Compound": "CC(F)(F)c1ccc(-c2cc(NC(=O)C3CC3)nc(C(=O)NCc3ccc(C#N)cc3)c2)cc1",
    "Measurement units": "%",
    "efficacy (beetle larvae killed)": 100
  },
  {
    "Compound": "O=C(NC1CC1(F)F)c1cc(-c2ccc(OC(F)(F)F)cc2)cc(NC(=O)C2CC2)n1 (centres unmarked)",
    "Measurement units": "%",
    "efficacy (beetle larvae killed)": 100
  },
  {
    "Compound": "N#Cc1ccc(CNC(=O)c2cc(-c3ccc(OC(F)(F)C(F)(F)F)cc3)cc(NC(=O)C3CC3)n2)cc1",
    "Measurement units": "%",
    "efficacy (beetle larvae killed)": 83
  },
  {
    "Compound": "O=C(NC1CC1)c1cc(-c2ccc(S(=O)(=O)C(F)(F)F)cc2)cc(NC(=O)C2CC2)n1",
    "Measurement units": "%",
    "efficacy (beetle larvae killed)": 100
  },
  {
    "Compound": "N#Cc1ccc(CNC(=O)c2cc(-c3c(Cl)cc(C(F)(F)C(F)(F)F)c(F)c3Cl)cc(NC(=O)C3CC3)n2)cc1",
    "Measurement units": "%",
    "efficacy (beetle larvae killed)": 100
  },
  {
    "Compound": "N#Cc1ccc(CNC(=O)c2cc(-c3ccc(OC(F)(F)F)cc3F)cc(NC(=O)C3CC3)n2)cc1",
    "Measurement units": "%",
    "efficacy (beetle larvae killed)": 100
  },
  {
    "Compound": "N#Cc1ccc(CNC(=O)c2cc(-c3ccc(Br)cc3)cc(NC(=O)C3CC3)n2)cc1",
    "Measurement units": "%",
    "efficacy (beetle larvae killed)": 100
  },
  {
    "Compound": "N#Cc1ccc(CNC(=O)c2cc(-c3cccc(OC(F)(F)F)c3)cc(NC(=O)C3CC3)n2)cc1",
    "Measurement units": "%",
    "efficacy (beetle larvae killed)": 100
  },
  {
    "Compound": "N#Cc1ccc(CNC(=O)c2cc(-c3ccc(SC(F)(F)F)cc3)cc(NC(=O)C3CC3)n2)cn1",
    "Measurement units": "%",
    "efficacy (beetle larvae killed)": 100
  }
]

Reference for the values: patent US20190053492A1
